experimental-target: PIK3CA (human)
quantity-name: IC50

Below: 8 compounds and their reported IC50.
COc1cncc(-c2cnc3sc(NC4CCN(S(C)(=O)=O)CC4)nn23)c1	0.05 to 1 µM
c1cc(-c2cnc3sc(N4CCOCC4)nn23)c2cn[nH]c2c1	0.05 to 1 µM
Nc1ncc(-c2cnc3sc(NCC4CCNCC4)nn23)cc1C(F)(F)F	0.05 to 1 µM
CN(c1nn2c(-c3cnc(N)c(C(F)(F)F)c3)cnc2s1)C1CCC(=NO)CC1 (configuration not stated)	0.082 µM
Nc1ncc(-c2cnc3sc(NC[C@H]4CC[C@H](O)CC4)nn23)cc1C(F)(F)F	0.129 µM
Nc1ncc(-c2cnc3sc(N4CCN5CCNCC5C4)nn23)cc1C(F)(F)F (configuration not stated)	0.085 µM
CN(c1nn2c(-c3cnc(N)c(C(F)(F)F)c3)cnc2s1)C1CCNCC1	0.05 to 1 µM
CC(=O)O[C@H]1CC[C@H](Nc2nn3c(-c4cnc(N)c(C(F)(F)F)c4)c(Cl)nc3s2)CC1	0.05 to 1 µM

Output reported IC50 of the compound CS(=O)(=O)N1CCC(Nc2nn3c(-c4cnc(N)c(C(F)(F)F)c4)c(Cl)nc3s2)CC1 on PIK3CA (human).
0.024 µM

Output reported IC50 of the compound CS(=O)(=O)N1CCC(N(CCN2CCCC2)c2nn3c(-c4cnc(N)c(C(F)(F)F)c4)cnc3s2)CC1 on PIK3CA (human).
0.001 to 0.05 µM

Output reported IC50 of the compound Nc1ncc(-c2cnc3sc(N4CCC5(CCNCC5)CC4)nn23)cc1C(F)(F)F on PIK3CA (human).
0.141 µM

Output reported IC50 of the compound CC(C)(C)OC(=O)NCC1CCN(c2nn3c(-c4cnc(N)c(C(F)(F)F)c4)cnc3s2)CC1 on PIK3CA (human).
0.05 to 1 µM

Output reported IC50 of the compound Nc1ccc(-c2cnc3sc(N[C@H]4CC[C@H](O)CC4)nn23)cn1 on PIK3CA (human).
0.05 to 1 µM
